- experimental-protocol: In vitro stability in liver microsomes, SD rats
- Format: in vitro ADME
- study-conditions: rat, 0.5 mg/mL
measurement-label: half-life at 1 μM (min)
The reply should contain only the number, in min.

Write down half-life at 1 μM measured for item "C=C(F)C(=O)N1CCN(c2nc(OC[C@@]34CCCN3C[C@H](F)C4)nc3c2CO[C@H](c2c(F)c(N)cc(C)c2C(F)(F)F)C3)C[C@@H]1CC#N"
23

----------
- experimental-protocol: In vitro stability in liver microsomes, cynomolgus monkeys
- Type: in vitro ADME
- study-conditions: cynomolgus monkey, 0.5 mg/mL
measurement-label: CLint scaled at 1 μM (mL/min/kg)
The reply should contain only the number, in mL/min/kg.

Write down CLint scaled at 1 μM measured for item "C=C(F)C(=O)N1CCN(c2nc(OC[C@@]34CCCN3C[C@H](F)C4)nc3c2CO[C@H](c2c(F)c(N)cc(C)c2C(F)(F)F)C3)C[C@@H]1CC#N"
303

----------
- experimental-protocol: In vitro stability in liver microsomes, CD-1 mice
- Type: in vitro ADME
- study-conditions: mouse, CD-1 mice liver microsomes, 0.5 mg/mL
measurement-label: CLint scaled at 1 μM (mL/min/kg)
The reply should contain only the number, in mL/min/kg.

Write down CLint scaled at 1 μM measured for item C=C(F)C(=O)N1CCN(c2nc(OC[C@@]34CCCN3C[C@H](F)C4)nc3c2CO[C@H](c2c(F)c(N)cc(C)c2C(F)(F)F)C3)C[C@@H]1CC#N [Compound of formula (I)]
1130

----------
- experimental-protocol: Metabolic stability in hepatocytes, beagle dogs
- Type: in vitro ADME
- study-conditions: dog, cryopreserved hepatocytes, read-out: CLint(liver)
measurement-label: CLint scaled at 1 μM (mL/min/kg)
The reply should contain only the number, in mL/min/kg.

Write down CLint scaled at 1 μM measured for item "C=C(F)C(=O)N1CCN(c2nc(OC[C@@]34CCCN3C[C@H](F)C4)nc3c2CO[C@H](c2c(F)c(N)cc(C)c2C(F)(F)F)C3)C[C@@H]1CC#N"
52.3

----------
- experimental-protocol: Pharmacokinetics by oral administration and intravenous injection in CD mice
- Format: in vivo
- study-conditions: male, mouse, plasma, intravenous injection, 2.0 mg/kg, read-out: Area under the plasma concentration-time curve, AUC0-last
measurement-label: AUC(0-t) (µM·h)
The reply should contain only the number, in µM·h.

Write down AUC(0-t) measured for item "C=C(F)C(=O)N1CCN(c2nc(OC[C@@]34CCCN3C[C@H](F)C4)nc3c2CO[C@H](c2c(F)c(N)cc(C)c2C(F)(F)F)C3)C[C@@H]1CC#N"
1.3

----------
- experimental-protocol: In vitro stability in liver microsomes, CD-1 mice
- Assay type: in vitro ADME
- study-conditions: mouse, CD-1 mice liver microsomes, 0.5 mg/mL
measurement-label: half-life at 1 μM (min)
The reply should contain only the number, in min.

Write down half-life at 1 μM measured for item "C=C(F)C(=O)N1CCN(c2nc(OC[C@@]34CCCN3C[C@H](F)C4)nc3c2CO[C@H](c2c(F)c(N)cc(C)c2C(F)(F)F)C3)C[C@@H]1CC#N"
4.9

----------
- experimental-protocol: Metabolic stability in hepatocytes, human
- Format: in vitro ADME
- study-conditions: cryopreserved hepatocytes
measurement-label: half-life at 1 μM (h)
The reply should contain only the number, in h.

Write down half-life at 1 μM measured for item C=C(F)C(=O)N1CCN(c2nc(OC[C@@]34CCCN3C[C@H](F)C4)nc3c2CO[C@H](c2c(F)c(N)cc(C)c2C(F)(F)F)C3)C[C@@H]1CC#N [Compound of formula (I)]
1.66

----------
- experimental-protocol: Protein binding rate in plasma by equilibrium dialysis, SD rats
- Type: in vitro ADME
- study-conditions: plasma; value used in the SD rat PK table; read-out: Plasma protein unbound rate PPB (Unbound %)
measurement-label: fraction unbound at 4 h, 2 μM

Write down fraction unbound at 4 h, 2 μM measured for item "C=C(F)C(=O)N1CCN(c2nc(OC[C@@]34CCCN3C[C@H](F)C4)nc3c2CO[C@H](c2c(F)c(N)cc(C)c2C(F)(F)F)C3)C[C@@H]1CC#N"
0.048

----------
- experimental-protocol: Pharmacokinetics by oral administration and intravenous injection in CD mice
- Assay type: in vivo
- study-conditions: male, mouse, plasma, intravenous injection, 2.0 mg/kg, read-out: Half-life time, T1/2 (converted)
measurement-label: half-life (h)
The reply should contain only the number, in h.

Write down half-life measured for item C=C(F)C(=O)N1CCN(c2nc(OC[C@@]34CCCN3C[C@H](F)C4)nc3c2CO[C@H](c2c(F)c(N)cc(C)c2C(F)(F)F)C3)C[C@@H]1CC#N [Compound of formula (I)]
1.7

----------
- experimental-protocol: Pharmacokinetics by oral administration and intravenous injection in CD mice
- Assay type: in vivo
- study-conditions: male, mouse, plasma, oral administration, 10.3 mg/kg, read-out: Peak concentration, Cmax
measurement-label: Cmax (nM)
The reply should contain only the number, in nM.

Write down Cmax measured for item "C=C(F)C(=O)N1CCN(c2nc(OC[C@@]34CCCN3C[C@H](F)C4)nc3c2CO[C@H](c2c(F)c(N)cc(C)c2C(F)(F)F)C3)C[C@@H]1CC#N"
431

----------
- experimental-protocol: Pharmacokinetics by oral administration and intravenous injection in SD rats
- Type: in vivo
- study-conditions: male, SD, rat, plasma, iv, 2 mg/kg, intravenous injection, 2.0 mg/kg, Vdss/PPB(Unbound %), read-out: Apparent volume of distribution, Vdss, u
measurement-label: Vd (L/kg)
The reply should contain only the number, in L/kg.

Write down Vd measured for item C=C(F)C(=O)N1CCN(c2nc(OC[C@@]34CCCN3C[C@H](F)C4)nc3c2CO[C@H](c2c(F)c(N)cc(C)c2C(F)(F)F)C3)C[C@@H]1CC#N [Compound of formula (I)]
221

----------
- experimental-protocol: Pharmacokinetics of crystal form A by oral administration in SD rats
- Type: in vivo
- study-conditions: male, rat, plasma, 92.3 mg/kg, suspension in 0.5% methylcellulose, read-out: Peak concentration, Cmax
measurement-label: Cmax
The reply must contain the numeric value and, after it, the unit.

Write down Cmax measured for item "C=C(F)C(=O)N1CCN(c2nc(OC[C@@]34CCCN3C[C@H](F)C4)nc3c2CO[C@H](c2c(F)c(N)cc(C)c2C(F)(F)F)C3)C[C@@H]1CC#N"
1400 nM

----------
- experimental-protocol: Pharmacokinetics by oral administration and intravenous injection in SD rats
- Type: in vivo
- study-conditions: male, SD, rat, plasma, iv, 2 mg/kg, intravenous injection, 2.0 mg/kg, read-out: Apparent volume of distribution, Vdss
measurement-label: Vd

Write down Vd measured for item "C=C(F)C(=O)N1CCN(c2nc(OC[C@@]34CCCN3C[C@H](F)C4)nc3c2CO[C@H](c2c(F)c(N)cc(C)c2C(F)(F)F)C3)C[C@@H]1CC#N"
10.6 L/kg

----------
- experimental-protocol: In vitro stability in liver microsomes, human
- Assay type: in vitro ADME
- study-conditions: 0.5 mg/mL, read-out: CLint(hep)
measurement-label: microsomal CLint at 1 μM (µL/min/mg)
The reply should contain only the number, in µL/min/mg.

Write down microsomal CLint at 1 μM measured for item C=C(F)C(=O)N1CCN(c2nc(OC[C@@]34CCCN3C[C@H](F)C4)nc3c2CO[C@H](c2c(F)c(N)cc(C)c2C(F)(F)F)C3)C[C@@H]1CC#N [Compound of formula (I)]
67.9

----------
- experimental-protocol: Pharmacokinetics by oral administration and intravenous injection in SD rats
- Assay type: in vivo
- study-conditions: male, rat, plasma, oral administration, 9.8 mg/kg, read-out: Area under the plasma concentration-time curve, AUC0-last
measurement-label: AUC(0-t) (µM·h)
The reply should contain only the number, in µM·h.

Write down AUC(0-t) measured for item C=C(F)C(=O)N1CCN(c2nc(OC[C@@]34CCCN3C[C@H](F)C4)nc3c2CO[C@H](c2c(F)c(N)cc(C)c2C(F)(F)F)C3)C[C@@H]1CC#N [Compound of formula (I)]
0.995

----------
- experimental-protocol: Pharmacokinetics by oral administration in beagle dogs
- Type: in vivo
- study-conditions: male, dog, plasma, 24.5 mg/kg, 0.5% methylcellulose, read-out: Area under the plasma concentration-time curve, AUC0-last
measurement-label: AUC(0-t) (µM·h)
The reply should contain only the number, in µM·h.

Write down AUC(0-t) measured for item "C=C(F)C(=O)N1CCN(c2nc(OC[C@@]34CCCN3C[C@H](F)C4)nc3c2CO[C@H](c2c(F)c(N)cc(C)c2C(F)(F)F)C3)C[C@@H]1CC#N"
16.7

----------
- experimental-protocol: Pharmacokinetics by oral administration and intravenous injection in CD mice
- Format: in vivo
- study-conditions: male, CD, mouse, plasma, iv, 2 mg/kg, intravenous injection, 2.0 mg/kg, Vdss/PPB(Unbound %), read-out: Apparent volume of distribution, Vdss, u
measurement-label: Vd (L/kg)
The reply should contain only the number, in L/kg.

Write down Vd measured for item "C=C(F)C(=O)N1CCN(c2nc(OC[C@@]34CCCN3C[C@H](F)C4)nc3c2CO[C@H](c2c(F)c(N)cc(C)c2C(F)(F)F)C3)C[C@@H]1CC#N"
32.3

Origin of measurements: patent US20250129102A1
